Molecular target: human TrkA receptor (Homo sapiens (Human), UniProt P04629)
Sequence (P04629 33-796): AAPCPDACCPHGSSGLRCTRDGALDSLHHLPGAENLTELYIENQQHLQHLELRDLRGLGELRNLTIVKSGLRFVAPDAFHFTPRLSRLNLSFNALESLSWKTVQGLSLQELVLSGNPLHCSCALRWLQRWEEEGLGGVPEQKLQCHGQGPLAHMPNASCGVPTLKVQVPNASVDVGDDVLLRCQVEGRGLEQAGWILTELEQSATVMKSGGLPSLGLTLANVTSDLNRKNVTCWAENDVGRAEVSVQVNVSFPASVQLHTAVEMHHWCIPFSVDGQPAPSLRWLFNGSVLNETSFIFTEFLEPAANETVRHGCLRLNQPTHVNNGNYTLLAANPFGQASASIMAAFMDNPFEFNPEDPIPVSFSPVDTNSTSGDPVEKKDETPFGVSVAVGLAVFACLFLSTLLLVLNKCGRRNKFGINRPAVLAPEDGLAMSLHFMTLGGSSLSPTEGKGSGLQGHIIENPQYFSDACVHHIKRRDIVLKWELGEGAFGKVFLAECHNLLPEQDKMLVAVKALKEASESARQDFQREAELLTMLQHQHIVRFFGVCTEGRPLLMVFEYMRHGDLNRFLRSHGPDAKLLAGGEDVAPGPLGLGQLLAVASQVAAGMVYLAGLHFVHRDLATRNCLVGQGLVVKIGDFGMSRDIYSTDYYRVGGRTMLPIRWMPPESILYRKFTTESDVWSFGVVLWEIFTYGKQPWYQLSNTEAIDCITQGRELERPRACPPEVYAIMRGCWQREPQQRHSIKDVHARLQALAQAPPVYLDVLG
Assay: DiscoverX PathHunter TrkA functional assay (NGF-stimulated U2OS cells)
Conditions: U2OS cells expressing human TrkA-PK, Shc1-EA and p75NTR; compound 1 h, then NGF at ~80% of maximal response for 3 h; luminescence
pIC50: −log10 of the molar value.
parameter measured: pIC50

In the examples that follow, each entry is paired with its recorded pIC50.
test smiles | pIC50
Cn1ccc(-c2cc(C(=O)Nc3ccc(C4CN(C(=O)CN)C4)nc3-c3ccccc3)c(F)cc2C(F)(F)F)n1 | 8.96
O=C(Nc1cc(-c2ccc(CO)cn2)cnc1-c1ccccc1)c1cc(-c2ncccn2)c(C(F)(F)F)cc1F | 9.17
O=C(Nc1cc2c(nc1-c1ccccc1)C(=O)NC2=O)c1cc(-c2ncccn2)c(C(F)(F)F)cc1F | 7.74

a: Cc1ncc(NC(=O)c2cc(-c3ncccn3)c(Cl)cc2F)c(-c2ccccc2)n1
b: CC(=O)N1CCc2nc(-c3ccccc3)c(NC(=O)c3ccc(C(F)(F)F)c(-c4ncccn4)c3)cc2C1
Query: Return label of the item with the larger pIC50. Candidates: a , b . Provide the label of your selected option as the answer.
Result: b

a: Cn1ccc(-c2cc(C(=O)Nc3cnc(Cn4cccnc4=O)nc3-c3ccccc3)c(F)cc2C(F)(F)F)n1
b: Cn1ccc(-c2cc(C(=O)Nc3cc4c(nc3-c3ccccc3)CNC4=O)c(F)cc2C(F)(F)F)n1
Query: Given a and given b , which shows the smaller recorded pIC50? Which one? Tell me its label.
Result: a
(a: 8.92, b: 9.42)
